measurement.target: Histamine H4 receptor (Homo sapiens, UniProt Q9H3N8)
Sequence (Q9H3N8 whole entry): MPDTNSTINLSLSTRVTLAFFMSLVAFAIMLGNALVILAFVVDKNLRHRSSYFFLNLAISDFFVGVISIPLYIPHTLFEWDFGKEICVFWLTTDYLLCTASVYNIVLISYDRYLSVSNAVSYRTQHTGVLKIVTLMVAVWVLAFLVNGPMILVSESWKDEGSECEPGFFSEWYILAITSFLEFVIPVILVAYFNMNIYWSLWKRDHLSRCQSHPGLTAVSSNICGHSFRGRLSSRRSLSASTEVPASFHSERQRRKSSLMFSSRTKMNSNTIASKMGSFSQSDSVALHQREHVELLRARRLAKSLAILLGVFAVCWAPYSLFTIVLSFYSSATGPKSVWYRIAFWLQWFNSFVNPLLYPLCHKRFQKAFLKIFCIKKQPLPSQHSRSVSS
assay: Agonist activity at human H4R-RGS19 Galphai2 Gbeta1gamma2 expressed in Sf9 cells by steady state GTPase activity assay relative to histamine
Format: functional

| mol.smiles | Intrinsic activity |
| --- | --- |
| N/C(=N\C(=O)CCCCCCC(=O)/N=C(\N)NCCCc1c[nH]cn1)NCCCc1c[nH]cn1 | 0.51 |
| Cc1nc(N)sc1CCCN/C(N)=N/C(=O)CCCCCCCCC(=O)/N=C(\N)NCCCc1c[nH]cn1 | 0.52 |
| N/C(=N\C(=O)CCCCC(=O)/N=C(\N)NCCCc1c[nH]cn1)NCCCc1c[nH]cn1 | 0.42 |
| N/C(=N\C(=O)CCCCCCCCC(=O)/N=C(\N)NCCCc1c[nH]cn1)NCCCc1c[nH]cn1 | 0.44 |
